- assay name: Solubility testing of forms of Mirabegron (suspension stirred at room temperature, supernatant dried to constant weight)
- Type: physicochemical
- stated conditions: 0.1M HCl, simulated gastric fluid, thermodynamic from solid, 2 hours
value type: solubility at 2 h (mg/mL)
// return numeric value only (unit: mg/mL, not printed)

# input compound: Nc1nc(CC(=O)Nc2ccc(CCNC[C@H](O)c3ccccc3)cc2)cs1 [Form APO-I, Mirabegron] ; wanted: its solubility at 2 h 15
